The measurements presented in this section are drawn from PubChem BioAssay.

# ASSAY: antimalarial activity against Dd2 strain (AID 2302)
# CONDITION_SUMMARY: P. falciparum Dd2 in RBCs, LDH growth readout, 72 h; at 2 µM
Calls of active or inactive are those of the source.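 The calls were made as follows: active = growth inhibition above 50% at the single 2 µM test dose, taken to imply half-maximal potency below 2 µM; inactive = the rest.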
Outcome codes: active, inactive

compound=CCn1c(-c2nonc2N)nc2c(-c3cccc(NC(=O)Nc4ccc5c(c4)CCC5)c3)ncc(OCCCN)c21 discrete_label=active
compound=CCN(CCCN1CCCCC1)c1cc(C)nc(Nc2cc(F)cc(F)c2)n1 discrete_label=active
compound=COc1ccc(C(=O)Nc2ccc(-c3ccc([N+](=O)[O-])cc3)cc2)cc1CCCN(C)C discrete_label=inactive
compound=N#Cc1cccc(NC(=O)Nc2ccc3c(c2)CN(Cc2c[nH]c4ncccc24)C3)c1 discrete_label=inactive
compound=CC(=O)Nc1nc(C)c(-c2csc(Nc3ccc(Cl)cc3)n2)s1 discrete_label=active
compound=COc1cc(Cc2cnc(N)nc2N)cc(OCCCS(=O)(=O)O)c1OC discrete_label=inactive
compound=FC(F)(F)c1ccc(Nc2nnnc3ccccc23)cc1 discrete_label=active
compound=Cc1cc(=O)c(-c2ccc(S(=O)(=O)c3ccc(Cl)cc3)cc2)c(C)[nH]1 discrete_label=active
compound=Oc1cc(Nc2ccnc3cc(I)ccc23)c(F)cc1Cl discrete_label=active
compound=CCOc1cc2ncnc(Nc3ccc(OCc4c(Cl)cccc4Cl)c(OC)c3)c2cc1OCC discrete_label=inactive
compound=COc1cccc2c(O)c(CNC3CCCCC3)ccc12 discrete_label=active
compound=Cc1nc(-c2nc(NCCc3cnccn3)ncc2-c2ccsc2)sc1C discrete_label=inactive
compound=CCOc1ccc(C=CC(=O)Nc2ccc3nc(N4CCOCC4)cc(C)c3c2)cc1OC discrete_label=inactive
compound=Oc1ccc(CN2CCC(NCc3cccc(C(F)(F)F)c3)CC2)cc1 discrete_label=active
compound=COc1cccc2cc(C(=O)N[C@@H](CC(C)C)C(=O)N[C@H](/C=N/N3CCOC3=O)CC(C)C)oc12 discrete_label=active
compound=CCc1ccc(NC(=O)c2ccc(CN3CCCN(Cc4cccc(O)c4)CC3)cc2)cc1 discrete_label=active
compound=Nc1nc(N)c2c3c(ccc2n1)NCCC3 discrete_label=inactive
compound=C(=N\Nc1nccc2sc(-c3ccccc3)cc12)/c1cccnc1 discrete_label=inactive
compound=O=C(C=Cc1ccc(Cl)c(Cl)c1)NCCCCCN1CCC(CCCNS(=O)(=O)c2ccc(F)cc2)CC1 discrete_label=inactive
compound="CC(CN(C)C)C(=O)Nc1ccc(-c2ccc(-c3nc4ccccc4[nH]3)cc2)cc1 (stereo unspecified)" discrete_label=active
compound=Cc1[nH]c(C)c(-c2ccc(Oc3ccc(Cl)cc3)cc2)c(=O)c1Cl discrete_label=inactive
compound=Cc1cccc2[nH]c(-c3ccc(-c4ccc(NC(=O)CN5CCN(C)CC5)cc4)s3)nc12 discrete_label=active
compound=Cc1cc(C(=O)OCC(=O)Nc2c(C)n(C)n(-c3ccccc3)c2=O)c(C)n1-c1ccc(F)cc1 discrete_label=active
compound=COc1ccc2nccc([C@@H](O)CN3CCC(NCCOc4cc(F)cc(F)c4)CC3)c2c1 discrete_label=active
compound=O=C(Nc1cc(Cl)cc(Cl)c1)c1cnn(-c2ccc(F)cc2)c1C1CCNCC1 discrete_label=inactive
compound=O=C(NCCc1ccccc1)N(Cc1ccccc1-c1cccc(CNC2CCCC2)c1)C1CCN(Cc2ccccc2)CC1 discrete_label=active
